Record form. Attribute: abundance fitness. Fill in for each entry.
B1: Transitional endoplasmic reticulum ATPase, residues 26 to 106; numbered along this chain, P55072 (parent)
chain: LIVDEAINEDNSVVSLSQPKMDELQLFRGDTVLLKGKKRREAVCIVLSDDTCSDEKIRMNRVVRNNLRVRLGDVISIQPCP

Variants of: B1
Experiment: abundance fitness (aPCA) (normalised: wild type 0, dead -1); higher = more abundant; growth selection in yeast, the domain comes from the species named
Settings: Homo sapiens
Could you keep your reply to the number by itself?

stdin: Please report the recorded abundance fitness for S76W .
stdout: -0.207

stdin: Input T31R
stdout: 0.053

stdin: Quick one: G36E
stdout: -0.191

stdin: Moving on to the next variant: I45G
stdout: -0.06

stdin: Consider next the variant D10K in the same way.
stdout: -0.007

stdin: Would you kindly repeat that for E55K ?
stdout: -0.03

stdin: Now this one: G29H
stdout: 0.059

stdin: Another: E41P
stdout: -0.131

stdin: N65T ?
stdout: -0.07

stdin: Please give the result for R28E too.
stdout: 0.094

stdin: Similarly, V32R ?
stdout: -0.98

stdin: And what about the variant M21R ?
stdout: -0.888

stdin: Cool, now M21V
stdout: -0.759

stdin: Record: N66F
stdout: -0.263

stdin: Also I7Q , if possible.
stdout: -0.17

stdin: Follow-up item: I77H
stdout: -0.842

stdin: // query: R70F
stdout: -0.184

stdin: What about this variant? M21A
stdout: -0.638

stdin: Next up: S48D
stdout: -0.137

stdin: Try the variant A6F
stdout: 0.093

stdin: Can you handle V63T next?
stdout: 0.072

stdin: Another variant to look at: I2V
stdout: -0.058

stdin: Now give it for V62M too.
stdout: 0.022

stdin: What do we get for E5N ?
stdout: -0.018

stdin: Next record, please: P81C
stdout: -0.262

stdin: Now this one: N8E
stdout: 0.013

stdin: // next record L67W
stdout: -0.976

stdin: Again, but for V69F
stdout: -0.717

stdin: Moving on to the next variant: R58H
stdout: -0.246

stdin: Would you mind doing D4C as well?
stdout: 0.096

stdin: Thanks! And M21K ?
stdout: -0.881

stdin: Same question, E41S this time
stdout: -0.09

stdin: Same again, this time with V3G
stdout: -0.811

stdin: One more variant: G72P
stdout: -0.891

stdin: R70I ?
stdout: -0.242

stdin: Now consider G36D and answer again.
stdout: -0.262

stdin: Moving on to the next variant: N66V
stdout: -0.104

stdin: Another: M59T
stdout: -0.275

stdin: Proceed to V46N
stdout: -0.749

stdin: Would you kindly repeat that for D4I ?
stdout: 0.052

stdin: And what about the variant G29E ?
stdout: -0.198

stdin: Let us now turn to D10E
stdout: -0.159

stdin: Ok, now S48H
stdout: -0.23

stdin: Also need L71I , thanks.
stdout: 0.045

stdin: Also check R58V
stdout: -0.521

stdin: Now try Q78E .
stdout: -0.004
